From: a melting point compilation (Tetko et al.; mined from patent text by program, amines drawn as free bases though some values may be those of a salt)

READOUT NAME: melting point

COc1cc(Br)c(Br)cc1C=NNC(=N)NN=Cc1cc(Br)c(Br)cc1OC : 265 to 267 °C
CC(C#CCCc1ccccc1)N(O)C(N)=O (stereo not drawn) : 113 to 114 °C
Oc1cc(=S)sc2cccc(C(F)(F)F)c12 : 142 to 144 °C
Cc1c(C)c2ccc(OCCCN3CCN(Cc4ccc(Cl)cc4)CC3)cc2[nH]c1=O : 143 to 144 °C
CNC(=O)c1ccccc1Nc1nc(Nc2ccc3c(c2)CCN(CCOC)CC3)ncc1Cl : 178 to 183 °C

Data request, read-out melting point, for Nc1ccc(NC(=O)NCc2ccc3c(c2)CN(C2CCC(=O)NC2=O)C3=O)cc1 (stereo not drawn)
> 400 °C

Same read-out for CCOC(Cn1cc[nH]c1=O)c1ccc(OC)c(OC)c1 (stereo not drawn) ?
134 °C

Same read-out for CCCCCCCCCC#CCCCCCCCCCCCO ?
38 to 39 °C

Same read-out for COc1ccc2[nH]c(S(=O)Cc3nccc(N(C)C)c3Cl)nc2c1 (stereo not drawn) ?
113 to 114 °C
